biological target: Somatostatin receptor type 1 (Homo sapiens); experiment: Displacement of [125I]-[Leu8, DTrp22, Tyr25]SRIF28 from human sst1 receptor expressed in CHOK1 cells by autoradiography
Sequence (P30872 whole entry): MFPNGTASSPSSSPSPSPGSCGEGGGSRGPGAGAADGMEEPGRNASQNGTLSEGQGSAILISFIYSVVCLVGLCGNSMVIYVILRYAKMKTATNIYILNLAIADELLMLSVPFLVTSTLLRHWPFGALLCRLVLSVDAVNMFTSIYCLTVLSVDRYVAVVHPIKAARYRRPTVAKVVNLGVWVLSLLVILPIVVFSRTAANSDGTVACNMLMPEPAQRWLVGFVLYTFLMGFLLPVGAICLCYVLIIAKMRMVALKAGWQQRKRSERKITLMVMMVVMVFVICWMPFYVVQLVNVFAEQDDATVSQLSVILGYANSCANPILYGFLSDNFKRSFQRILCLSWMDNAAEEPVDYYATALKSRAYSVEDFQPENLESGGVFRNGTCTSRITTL
QUANTITY: IC50

Sample records with IC50:
# COMPOUND, QUANTITY, MEASURED_VALUE
rows = [
    ("C[C@@H](O)[C@@H]1NC(=O)[C@H](CCCCN)NC(=O)[C@@H](Cc2c[nH]c3ccccc23)NC(=O)[C@H](Cc2ccc(O)cc2)NC(=O)[C@H](NC(=O)[C@@H](N)Cc2ccc(Cl)cc2)CCSSCC[C@@H](C(=O)N[C@@H](Cc2ccc3ccccc3c2)C(N)=O)NC1=O", "IC50", "763 nM"),
    ("C[C@@H](O)[C@H](NC(=O)[C@@H]1CCSSCC[C@H](NC(=O)[C@H](N)Cc2ccccc2)C(=O)N[C@@H](Cc2ccccc2)C(=O)N[C@H](Cc2c[nH]c3ccccc23)C(=O)N[C@@H](CCCCN)C(=O)N[C@@H]([C@@H](C)O)C(=O)N1)C(N)=O", "IC50", "> 1000 nM"),
    ("C[C@@H](O)[C@H](NC(=O)[C@@H]1NC(=O)[C@H]([C@@H](C)O)NC(=O)[C@H](CCCCN)NC(=O)[C@@H](Cc2c[nH]c3ccccc23)NC(=O)[C@H](Cc2ccccc2)NC(=O)[C@H](NC(=O)[C@H](N)Cc2ccccc2)SS1)C(N)=O", "IC50", "> 1000 nM"),
]

Q: Entry under review: C[C@@H](O)[C@H](NC(=O)[C@@H]1CSSC[C@H](NC(=O)[C@H](N)Cc2ccccc2)C(=O)N[C@@H](Cc2ccccc2)C(=O)N[C@H](Cc2c[nH]c3ccccc23)C(=O)N[C@@H](CCCCN)C(=O)N[C@@H]([C@@H](C)O)C(=O)N1)C(N)=O . Reported IC50?
A: > 1000 nM

----------
Would you mind telling me the reported pIC50 of each entry?
biological target: Somatostatin receptor type 4 (Homo sapiens, UniProt P31391); experiment: Displacement of [125I]-[Leu8, DTrp22, Tyr25]SRIF28 from human sst4 receptor expressed in chinese hamster CCL39 cells by autoradiography
Sequence (P31391 whole entry): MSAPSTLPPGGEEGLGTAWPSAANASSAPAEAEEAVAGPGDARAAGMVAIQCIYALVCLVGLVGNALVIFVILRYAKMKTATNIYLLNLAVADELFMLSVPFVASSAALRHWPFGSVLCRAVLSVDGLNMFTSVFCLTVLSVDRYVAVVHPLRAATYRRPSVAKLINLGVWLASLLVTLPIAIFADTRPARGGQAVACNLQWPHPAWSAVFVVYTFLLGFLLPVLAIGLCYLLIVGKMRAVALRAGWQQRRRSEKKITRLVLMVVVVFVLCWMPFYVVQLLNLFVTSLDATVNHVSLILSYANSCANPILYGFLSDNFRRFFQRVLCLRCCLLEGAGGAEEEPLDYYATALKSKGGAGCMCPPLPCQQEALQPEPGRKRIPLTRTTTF
Give bare numbers, as −log10 of the molar value.

Sample records with pIC50:
# COMPOUND, MEASURED_VALUE
measured = [
    ("C[C@@H](O)[C@H](NC(=O)[C@@H]1CCSSCC[C@H](NC(=O)[C@H](N)Cc2ccccc2)C(=O)N[C@@H](Cc2ccccc2)C(=O)N[C@H](Cc2c[nH]c3ccccc23)C(=O)N[C@@H](CCCCN)C(=O)N[C@@H]([C@@H](C)O)C(=O)N1)C(N)=O", 6.94),
    ("C[C@@H](O)[C@H](NC(=O)[C@@H]1NC(=O)[C@H]([C@@H](C)O)NC(=O)[C@H](CCCCN)NC(=O)[C@@H](Cc2c[nH]c3ccccc23)NC(=O)[C@H](Cc2ccccc2)NC(=O)[C@H](NC(=O)[C@H](N)Cc2ccccc2)SS1)C(N)=O", 6.67),
]

Q: Missing value: pIC50, Somatostatin receptor type 4 (Homo sapiens, UniProt P31391), entry C[C@@H](O)[C@@H]1NC(=O)[C@H](CCCCN)NC(=O)[C@@H](Cc2c[nH]c3ccccc23)NC(=O)[C@H](Cc2ccc(O)cc2)NC(=O)[C@H](NC(=O)[C@@H](N)Cc2ccc(Cl)cc2)CCSSCC[C@@H](C(=O)N[C@@H](Cc2ccc3ccccc3c2)C(N)=O)NC1=O . Fill in?
A: 6.76
